# Test system: P. falciparum stage V female gametocytes
# testDetails: P. falciparum female gametocyte activation assay (Pf FGAA), 24 h or 48 h preincubation, Pfs25 expression readout
# Format: cell-based, Plasmodium falciparum NF54
# recordedConditions: 24h incubation time; read-out: Pf FGAA IC50 (µM) 24h
quantityName: log10 IC50 (log10 of the value in µM)
Would you kindly interpret these values as log10 of IC50 expressed in µM?

Looking for the measured log10 IC50 of CN(C)c1ccc(-c2csc(C(=O)NCC3CCN(Cc4cccc(C(F)(F)F)c4)C3)c2)cc1.O=C(O)C(F)(F)F (stereo not shown) , can you help?
0.41

Moving on to CC(=O)Nc1ccc2[nH]cc(C3CCN(CC4CCC(NC(=O)/C=C/c5ccc(Cl)c(Cl)c5)CC4)CC3)c2n1 (stereo not shown)
1.19

Moving on to N=C(N)Nc1nc(-c2ccc(NCc3ccc(CNc4cccc(-c5csc(NC(=N)N)n5)c4)cc3)cc2)cs1
-0.85

Moving on to O=C(CCC1CCCC1)N(Cc1ccc(-c2ccc(CNCCc3ccccc3)cc2)cc1)C1CCCNC1.O=C(O)C(F)(F)F (stereo not shown)
0.84

Moving on to CN1CCN(CCCNCc2ccccc2-c2cccc(CNCc3ccc4c(c3)OCO4)c2)CC1.O=C(O)C(F)(F)F
0.76

Moving on to CNCC(C)(C)c1nc(-c2ccc(Cl)c(O)c2)c(-c2ccncc2)[nH]1.Cl
0.03

====

# System: P. falciparum stage V female gametocytes
# testDetails: P. falciparum female gametocyte activation assay (Pf FGAA), 24 h or 48 h preincubation, Pfs25 expression readout
# Type: cell-based, Plasmodium falciparum NF54
# recordedConditions: P. falciparum female gametocytes; mean; read-out: Gametocytes mean Pf FGAA IC50
quantityName: IC50 (nM)
Form entry: value (nM) — number only.

Looking for the measured IC50 of ON=C(c1nc2ccccc2[nH]1)c1nc2ccccc2[nH]1 , can you help?
330

Moving on to CCCN(CC1CC1)c1ncc(-c2cccc(CNCCC3CCCN3C)c2)cn1 (stereo not drawn)
2180

Moving on to Cl.N[C@@H](CCNC1CCN(c2cccc(C(F)(F)F)c2)CC1)Cc1ccc(F)c(F)c1
440

Moving on to C[C@H](Cc1ccc(CCc2ccc(C[C@@H](C)NC[C@H](O)c3cccc(Cl)c3)cc2)cc1)NC[C@H](O)c1cccc(Cl)c1.Cl
2050

Moving on to Cc1ccc(-c2nc3cc(NC(=O)c4ccc([N+](=O)[O-])o4)ccc3o2)cc1Cl
1350

Moving on to CC(C)(C)c1ccc(CN2CCC(CNC(=O)c3cc(-c4ccccc4F)cs3)C2)cc1.O=C(O)C(F)(F)F (stereo not drawn)
830

Moving on to Cc1cc(-c2ccc(CNC3Cc4ccccc4C3)cc2)ccc1S(=O)(=O)NCCN1CCCC1.O=C(O)C(F)(F)F
1830

Moving on to NCc1ccc(CNCc2ccc(-c3ccc(-c4nc5cc(C(F)(F)F)ccc5[nH]4)s3)cc2)cc1.O=C(O)C(F)(F)F
1020

Moving on to COc1cc2nc(N3CCN(c4nc(N)c5cc(OC)c(OC)cc5n4)CC3)nc(N)c2cc1OC
580

====

# System: P. falciparum stage V female gametocytes
# testDetails: P. falciparum female gametocyte activation assay (Pf FGAA), 24 h or 48 h preincubation, Pfs25 expression readout
# Assay type: cell-based, Plasmodium falciparum NF54
# recordedConditions: 24h incubation time; read-out: Pf FGAA IC50 (µM) 24h
Threshold 5 µM: IC50 strictly smaller gives Y, otherwise N.

Consider CN1CCC=C(C(=O)NCC(C)(C)c2nc(-c3ccc(Cl)c(O)c3)c(-c3ccncc3)[nH]2)C1.Cl [TCMDC-140700] . Does its IC50 lie strictly below 5 µM?
Y

Moving on to Cc1cccc2nc(-c3ccc(-c4ccc(CNCc5ccc(CN)cc5)cc4)cc3)[nH]c12.O=C(O)C(F)(F)F [TCMDC-132813]
Y

Moving on to CCc1cc2c(Sc3nnc(N)s3)ncnc2s1 [TCMDC-123993]
Y

Moving on to Cc1ccc(C)c2sc(N3CCN(C(=O)c4ccc([N+](=O)[O-])o4)CC3)nc12 [TCMDC-124315]
Y

Moving on to CN1CCN(CCCNc2ncc3c(-c4ccc(NC(=O)Nc5cc(C(F)(F)F)ccc5F)c(F)c4)nn(C)c3n2)CC1.O=C(O)C(F)(F)F [TCMDC-141611]
N

Moving on to CCN1CCC2(c3cccc(OC)c3)Cc3nc4ccccc4c(-c4ccccc4)c3CC2C1 (stereo not shown) [TCMDC-138968]
N

Moving on to CCn1c(-c2nonc2N)nc2c(-c3cccc(NC(=O)Nc4ccc5c(c4)CCC5)c3)ncc(OCCCN)c21.O=C(O)C(F)(F)F [TCMDC-136191]
N

Where these numbers come from: paper PMC5442318
